# TESTED SYSTEM: Influenza HA2 protein
RECORDED ENDPOINT: Kd (nM)

> print(dat)
                                   compound  output.unit  number
1  COCCOC(=O)C1=C(C)NC(C)=C(C(=O)OC/C=C/c2ccccc2)C1c1cccc([N+](=O)[O-])c1 (stereo not shown)           nM      32
